experiment: In vivo oral bioavailability assay (pharmacokinetics); parameters: species or system S.D. rats; details: male, S.D., plasma; rat; oral administration 60 mg/kg; read-out: t1/2 (converted)
Property name: half-life (h)
Numbers only, in h.

Task: Query half-life for CO[C@H]1C(=O)[C@]2(C)[C@@H](OC(=O)N(C)C)C[C@H]3OC[C@@]3(OC(C)=O)[C@H]2[C@H](OC(=O)c2ccccc2)[C@]2(O)C[C@H](OC(=O)[C@H](O)[C@@H](NC(=O)OC(C)(C)C)c3ccccc3)C(C)=C1C2(C)C [PCMI-31]
Output: 2.97

====

assay: Caco-2 cell monolayer membrane transport assay; details: human, Caco-2, Recovery rate in mass, Sample-01, Caco-2; A-B; Sample-01
So I've got a bunch of compounds here, and I need their recovery values.
Numbers only, in %.

CO[C@H]1C(=O)[C@]2(C)[C@@H](OC(=O)N(C)C)C[C@H]3OC[C@@]3(OC(C)=O)[C@H]2[C@H](OC(=O)c2ccccc2)[C@]2(O)C[C@H](OC(=O)[C@H](O)[C@@H](NC(=O)OC(C)(C)C)c3ccccc3)C(C)=C1C2(C)C [PCMI-31]	83
COC(=O)O[C@H]1C(=O)[C@]2(C)[C@@H](OC)C[C@H]3OC[C@@]3(OC(C)=O)[C@H]2[C@H](OC(=O)c2ccccc2)[C@]2(O)C[C@H](OC(=O)[C@H](O)[C@@H](NC(=O)OC(C)(C)C)c3ccccc3)C(C)=C1C2(C)C [PCMI-26]	80.9
COC(=O)O[C@H]1C[C@H]2OC[C@@]2(OC(C)=O)[C@H]2[C@H](OC(=O)c3ccccc3)[C@]3(O)C[C@H](OC(=O)[C@H](O)[C@@H](NC(=O)OC(C)(C)C)c4ccccn4)C(C)=C([C@@H](OC)C(=O)[C@]12C)C3(C)C [PCMI-38]	122

// below: recovery requested for another compound
Task: Query recovery for CO[C@H]1C[C@H]2OC[C@@]2(OC(C)=O)[C@H]2[C@H](OC(=O)c3ccccc3)[C@]3(O)C[C@H](OC(=O)[C@H](O)[C@@H](NC(=O)OC(C)(C)C)c4ccccc4)C(C)=C([C@@H](OC(=O)N(C)C)C(=O)[C@]12C)C3(C)C [PCMI-22]
Output: 92.4

====

assay: in vitro; settings: human, Caco-2, Papp A-B, Mean
Property name: Papp A→B (×10⁻⁶ cm/s)
Give bare numbers, in ×10⁻⁶ cm/s.

Task: Query Papp A→B for CC(=O)O[C@H]1C(=O)[C@@]2(C)[C@H]([C@H](OC(=O)c3ccccc3)[C@]3(O)C[C@H](OC(=O)[C@H](O)[C@@H](NC(=O)c4ccccc4)c4ccccc4)C(C)=C1C3(C)C)[C@]1(OC(C)=O)CO[C@@H]1C[C@@H]2O [Paclitaxel, reference compound]
Output: 0.97

====

assay: In vivo oral bioavailability assay (pharmacokinetics); parameters: species or system S.D. rats; details: male, S.D., plasma; rat; oral administration 60 mg/kg
Property name: Tmax
Entry format: amount then unit.

Task: Query Tmax for `CO[C@H]1C(=O)[C@]2(C)[C@@H](OC(=O)N(C)C)C[C@H]3OC[C@@]3(OC(C)=O)[C@H]2[C@H](OC(=O)c2ccccc2)[C@]2(O)C[C@H](OC(=O)[C@H](O)[C@@H](NC(=O)OC(C)(C)C)c3ccccc3)C(C)=C1C2(C)C`
Output: 48 min
